assay: Navitoclax plasma pharmacokinetics; format: in vivo, human; conditions: human, plasma, po, 250 mg
recorded.metric: Cmax (ng/mL)

INSERT INTO assay_data (smiles_code, recorded_metric, readout_units, obs_value) VALUES
  ('CC1(C)CCC(c2ccc(Cl)cc2)=C(CN2CCN(c3ccc(C(=O)NS(=O)(=O)c4ccc(N[C@H](CCN5CCOCC5)CSc5ccccc5)c(S(=O)(=O)C(F)(F)F)c4)cc3)CC2)C1', 'Cmax', 'ng/mL', 3700);

###

test: Navitoclax plasma pharmacokinetics; type: in vivo, human; details: human, plasma, po, 250 mg
recorded.metric: Tmax (h)

INSERT INTO measurements (molecule, obs_value) VALUES
  ('CC1(C)CCC(c2ccc(Cl)cc2)=C(CN2CCN(c3ccc(C(=O)NS(=O)(=O)c4ccc(N[C@H](CCN5CCOCC5)CSc5ccccc5)c(S(=O)(=O)C(F)(F)F)c4)cc3)CC2)C1 [navitoclax]', 6.1);

All figures here come from paper PMC4643417.
